Could you please report measured growth for the items listed next?
# System: COLO 205 colon
# testName: NCI-60 one-dose screen, 48 h (100 = growth as untreated, 0 = no growth, -100 = all killed)
# conditionContext: 10 µM unless noted
The panel holds about 83,000 compounds, 20% with a hit somewhere; the sample as a whole holds those more often.
State the answer as a number, implicitly in %.

The compound listed as C=C1C(=O)O[C@H]2[C@H]1CC/C(COC(=O)NCc1cc3ccccc3[nH]1)=C\CC[C@@]1(C)O[C@@H]21 has a reported growth of -52.2

Record COc1ccc(C2=NN(c3nc(-c4ccc(OC)cc4)c(C#N)c(=O)n3C)C(=O)CC2)cc1 , field growth: 109

Just so you know, measured growth for Cc1ccc(-c2nc([P+](c3ccccc3)(c3ccccc3)c3ccccc3)c(N3C[C@H]4C[C@H](C3)c3cccc(=O)n3C4)o2)cc1 came out at 48.9

Notebook: Cc1ccc(N(CC(=O)Nc2ccc(S(=O)(=O)NC3CCN(C)CC3)cc2)S(=O)(=O)c2ccc(Cl)cc2)cc1 , growth read as -47.6

Input COc1ccc(OC)c(-c2c(C#N)c(-c3ccco3)nc3c2c(-c2ccccc2)nn3-c2ccccc2)c1 . Output growth: 119

// field: growth; key: c1csc(-c2nc(-c3cc4ccccc4c(N4CCOCC4)n3)cs2)c1 ; value = 20.5

Memo: O=C1C=Cc2ncccc2C1=O , reported growth: 54

The compound COc1ccc(NC(=S)N/N=C/c2ccccc2SSCCC(=O)OC[C@H]2O[C@H](O)[C@H](O)[C@@H](O)[C@@H]2O)cc1 showed growth equal to 100

Numbers sourced from PubChem BioAssay (NCI).
